Non-standard residues stand in square brackets, D forms with d. Residues, ends and D or L forms follow the SMILES beside them. *: point of attachment. 1Nal = N[C@@H](Cc1cccc2ccccc12)C(=O)O; Leu(ol) = CC(C)C[C@H](N)CO; Cbz = O=C(OCc1ccccc1)*
Readout Kind: melting point

1) CC(Cc1c[nH]c2ccccc12)(NC(=O)OC1C2CC3CC(C2)CC1C3)C(=O)O (stereo not drawn): 210 to 215 °C
2) CC(C)C[C@@H](CO)NC(=O)[C@H](Cc1c[nH]cn1)NC(=O)[C@H](Cc1cccc2ccccc12)NC(=O)OCc1ccccc1 (Cbz-[1Nal]-His-[Leu(ol)]): 157 to 159 °C

[in] Fill in: melting point of `COc1cccc(OC)c1C(=O)Nc1nnc(-c2ccc(NC(C)=O)cc2)s1` is ___
[out] 211 to 213 °C

[in] Fill in: melting point of `Cc1ccc(CNC(=O)C2=C3N(CCC2=O)c2ccccc2N3CCN(C)C)cc1` is ___
[out] 120 to 122 °C
